- Assay method text: recombinant barcode read abundance after kanamycin selection (control-corrected) (log10(CPM+1)); higher = more efficient recombination; sequences stand for … in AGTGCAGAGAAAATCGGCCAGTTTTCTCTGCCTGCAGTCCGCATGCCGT…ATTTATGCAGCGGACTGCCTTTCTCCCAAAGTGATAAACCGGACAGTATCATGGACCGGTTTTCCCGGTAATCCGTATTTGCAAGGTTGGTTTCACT; site = the 11-nt target
Output: class label from recombinant barcode read abundance (log10). Mapping: LOW (below 0.06), MEDIUM (0.06 to below 0.3), HIGH (0.3 or more)

Sequence entry	Answer label
CATATTACCTGGGTTCTAACCTGTTGCCTGG [CATATTACTAG_LTGcore_CC_RTGcore_CC] (site CATATTACTAG) (LTG core: CC, RTG core: CC)	HIGH
TTATAAACTTGGGTTCTAACCTGTTGCCTAA [TTATAAACTAG_LTGcore_CT_RTGcore_TT] (site TTATAAACTAG) (LTG core: CT, RTG core: TT)	LOW
GGGAGCCCCTGGGTTCTAACCTGTTGCTGGG [GGGAGCCCTCA_LTGcore_CC_RTGcore_CC] (site GGGAGCCCTCA) (LTG core: CC, RTG core: CC)	LOW
GGACACCAATGGGTTCTAACCTGTTGCCTTT [GGACACCCTAG_LTGcore_AA_RTGcore_AA] (site GGACACCCTAG) (LTG core: AA, RTG core: AA)	HIGH
GAGTCCTTATGGGTTCTAACCTGTTGCCTAG [GAGTCCTCTAG_LTGcore_TA_RTGcore_CT] (site GAGTCCTCTAG) (LTG core: TA, RTG core: CT)	HIGH
CGAGCCCCTTGGGTTCTAACCTGTTGCTGTC [CGAGCCCCTCA_LTGcore_CT_RTGcore_GA] (site CGAGCCCCTCA) (LTG core: CT, RTG core: GA)	MEDIUM
GCGGGACTCTGGGTTCTAACCTGTTGCCTGA [GCGGGACCTAG_LTGcore_TC_RTGcore_TC] (site GCGGGACCTAG) (LTG core: TC, RTG core: TC)	MEDIUM
GAGTCCTGCTGGGTTCTAACCTGTTGCCTGC [GAGTCCTCTAG_LTGcore_GC_RTGcore_GC] (site GAGTCCTCTAG) (LTG core: GC, RTG core: GC)	HIGH
AGGAGGTAGTGGGTTCTAACCTGTTGCCTCT [AGGAGGTCTAG_LTGcore_AG_RTGcore_AG] (site AGGAGGTCTAG) (LTG core: AG, RTG core: AG)	MEDIUM
GGGAGCCCTTGGGTTCTAACCTGTTGCTGTA [GGGAGCCCTCA_LTGcore_CT_RTGcore_TA] (site GGGAGCCCTCA) (LTG core: CT, RTG core: TA)	LOW

The measured values listed here are drawn from the supplement of paper PMC11208160.
